The reported numbers originate from the supplement of paper PMC9170038.

Reported apparent KD of MS2 coat protein by item:
tested on: MS2 coat protein; assay: apparent KD of MS2 coat protein; higher = weaker reporter binding; settings: Eterna round: R107; input ligand: arginine 13.2 mM
Measure: apparent KD of MS2 coat protein (nM)

construct_sequence="AUCAUGGCCAUCGAUACCAGCUACAUGAGGAUCACCCAUGUAAACGGCCCGGUGAGAUGUAGCCCUUGGCAGCGAAGGGUCAAGG [Ratimatiqu]" target_under_test="MS2 coat protein" measure="apparent KD of MS2 coat protein" meas_value=12.4
construct_sequence="UUUAACGGGCACGAUACCAGCGACAUGAGGAUCACCCAUGUAAACGCGGUGACGGUCUGUUGCCCUUGGCAGCGUGCAAAAUAAU [Zaquarar]" target_under_test="MS2 coat protein" measure="apparent KD of MS2 coat protein" meas_value=43
construct_sequence="CCGGAGACCUCGGCCGCCACUCUCCAUGAGGAUCUCCCAUGUAACAUGAGGAUCACCCAUGUGCUGAGGACCGGGAGGUCCUCCU [Same State Tryptophan B GF 20]" target_under_test="MS2 coat protein" measure="apparent KD of MS2 coat protein" meas_value=18.7
construct_sequence="AACAUGAGGAUUGAUACCAGUCCAUGAGGAUCACAUGAGGAUCACCCAUGUGGAACAUGAGGCCCUUGGCAGCAGUACAACAUGA [Same State Theophylline B]" target_under_test="MS2 coat protein" measure="apparent KD of MS2 coat protein" meas_value=13.8
construct_sequence="GAAUCUACAAACGAUACCAGAUCCGGCUGCCACAUGAGGAUCACCCAUGUCUAGCGACUCAUCCCUUGGCAGCGUGUGCAUCCCG [theeternabot_sameState_MS2_Theo_B_37]" target_under_test="MS2 coat protein" measure="apparent KD of MS2 coat protein" meas_value=147
construct_sequence="CUAUAAGUACCGGUCCUCAGAUCCUCAUGACGAGGACCGGUACGGCCGCCACUCGAAACAUGAGGAUCACCCAUGUAAUAAUACC [Brourdmod16]" target_under_test="MS2 coat protein" measure="apparent KD of MS2 coat protein" meas_value=17.5
